Data provenance is patent US20220073643A1.

EC50 listing for selected binders.
- Subject Of Test: Claudin18.2-His protein (human)
- Protocol Notes: indirect ELISA on coated Claudin18.2-His
Hi! Could you send only the number? It should be in ng/mL, unit omitted.

Here's what some known entries look like.
Binder	EC50 [ng/mL]
201F4H6 (antibody, V domains shown) VH: QVQLKESGPGLVAPSQSLSITCTVSGFSLTSYGVSWVRQPPGKGLECLGVIWAGGNTNYNSALMSRLSISKDKSKSQVFLKMNSLQTDDTAMYYCARVYYGNAMDYWGQGTSVTVSS VL: DIVMTQSPSSLTVTAGEKVTMSCKSSQSLLNSGNQKSYLTWYQQRPGQPPKLLIYWASTRESGVPDRFTGSGSGTDFTLTISSVQAEDLAVYFCQNVYFFPFTFGSGTKLETK	119
226A4B5 (antibody, V domains shown) VH: QAYLQQSGAELVRSGASVRMSCKASGFTFTSYNIHWVKQTPGQGLEWIGYIYPGSGGSNYNQKFMGKATLTADTSSSTVYMQISSLTSEDSAVYFCATGRGFAYWGQGTLVTVSA VL: DIVMTQSPSSLTVTAGEKVTMSCKSSQSLFNSGNQKNYLTWYQQKPGQPPKLLIYRASTRESGVPDRFTGSGSGTDFTLTISSVQAEDLAVYYCQNDYSYPLTFGTGTKLELK	8.13

Could you now look at the following binder, please?
Param item = 411A6E3 (antibody, V domains shown) VH: DVQLVESGGGLVQPGGSRKLSCAASGFTFSDFGMHWIRQTPEKGLEWVAYISSGSRPIYYADTVKGRFTISRDNPKNTLFLQMTSLRSEDTAMYFCVRFYFGNSFDHWGQGTLVTVSA VL: DIVMTQSPSFLTVTAGEKVTMTCRSSQNLLNSGNLKNYLTWYQQKPGQPPKLLISWASTRESGVPDRFTGSGSGTDFTLTISSVQPEDLALYYCQNAYSFPLTFGAGTKLELK ; retrieve measured EC50.
6.74
